Entries and their solubility kinetic values follow.
# condition info: buffer; pH 7.4; 200.0 µM
parameter measured: solubility kinetic

• Cc1ccc(OCC(=O)OCC(=O)NC2CC2)cc1C = > 41.6 µg/mL
• O=C(NC1CCCC(C(F)(F)F)C1)c1ccc([N+](=O)[O-])o1 (centres undefined) = > 45.9 µg/mL
• Cc1cccc(NC(=O)CNC(=O)CSc2ncccn2)c1C = > 49.6 µg/mL
• Cc1nc(-c2cccs2)sc1C(=O)O = > 33.8 µg/mL
• O=C(O)c1cccc(Nc2nc3ccccc3nc2NS(=O)(=O)c2ccc(F)cc2)c1 = > 65.8 µg/mL
• CCc1c(C)nc(N)nc1N1N=C1SCCOc1ccccc1 = > 49.4 µg/mL
• COc1cccc(SCC2CSc3nc4ccccc4c(=O)n32)c1 (centres undefined) = > 53.5 µg/mL
• Cc1nn(CC(=O)Nc2ccc(N3CCOCC3)cc2)c(C)c1[N+](=O)[O-] = > 53.9 µg/mL
• Cc1nc(CSc2nnc(N)s2)cs1 = > 36.7 µg/mL
• S=C(c1c[nH]c2ccccc12)N1CCCC1 = > 34.5 µg/mL
• Cc1nc2ccccn2c1-c1ccnc(SCc2ccc(Cl)cc2)n1 = < 0.2 µg/mL
• Cc1cccnc1Oc1ncccc1N = > 30.2 µg/mL
• CCC(=NC(C)c1ccccc1)c1c(O)[nH]c(=O)[nH]c1=O (centres undefined) = > 43.1 µg/mL
• COC(=O)c1ccsc1NC(=O)CS(=O)(=O)c1ccccc1 = > 50.9 µg/mL
• CCOc1ccc(S(=O)(=O)N(CC)CC)cc1N = > 40.9 µg/mL
• Cl.OCCNCCNCc1ccc(-c2ccccc2)cc1 = > 51.5 µg/mL
• CCn1c(Oc2ccccc2C)nc2c1c(=O)n(C)c(=O)n2C = > 47.2 µg/mL
• Cc1ccccc1C(=O)OC1CCN(C)CC1.Cl = > 40.5 µg/mL
• Cc1ccc(Nc2ccc([N+](=O)[O-])cn2)cc1Cl = < 0.2 µg/mL
• Cc1c(Cl)cccc1NC(=O)c1cccnc1 = > 37 µg/mL
• Cc1cc(C)c(NC(=O)CCCSc2nnc(N)s2)c(C)c1 = > 50.5 µg/mL
• COn1c(-c2ccc(Cl)cc2)nc2ncccc21 = > 39 µg/mL
• COc1cc(C(=O)Oc2cccnc2)cc(OC)c1OC.Cl = > 48.9 µg/mL
• CC(=O)Nc1ccc(CCc2nc3ccccc3[nH]2)cc1 = > 41.9 µg/mL

---

# condition info: buffer; pH 7.4; 200.0 µM
parameter measured: solubility kinetic

• CC(C)(C)c1ccc(C(=O)Nc2ccc(F)cc2)s1 = < 0.6 µg/mL
• Cc1noc(C)c1CN1C(=O)c2ccc([N+](=O)[O-])cc2C1=O = > 45.2 µg/mL
• COc1cc(CNCCc2ccc3c(c2)OCO3)ccc1O.Cl = > 50.7 µg/mL
• O=C(O)c1cc(=O)c2ccccc2[nH]1 = > 28.4 µg/mL
• CC(=O)N1CCN(C(=O)C2CCN(S(=O)(=O)c3ccccc3C(F)(F)F)CC2)CC1 = > 67.1 µg/mL
• N#CC(=C=[N-])/C=C(\C(=O)c1ccccc1)[n+]1ccccc1 = > 41 µg/mL
• Cc1cccc(NC(=O)CCCCC(=O)Nc2cccc(C)c2)c1 = < 0.3 µg/mL
• COc1ccc2[nH]cc(CCNC(C)=O)c2c1 = > 34.8 µg/mL
• Cc1cccc(OC(C)C(=O)N2CCCN(C)CC2)c1C (configuration not stated) = > 43.6 µg/mL
• CC(=O)c1ccc(CC2SC(N)=NC2=O)cc1 (configuration not stated) = > 37.2 µg/mL
• O=C(O)C1CCc2sc3[nH]c(=S)n(-c4ccccc4)c(=O)c3c21 (configuration not stated) = > 51.7 µg/mL
• Cc1ccccc1NC(=O)NCCCN1CCN(C)CC1 = > 43.6 µg/mL
• O=C(NCCc1cccs1)c1cccs1 = > 35.6 µg/mL
• OC(CNCc1ccccc1Cl)COc1ccc(F)cc1 (configuration not stated) = > 46.5 µg/mL
• COc1cccc(C(=O)c2c[nH]c(C(=O)NCc3cccnc3)c2)c1 = > 50.3 µg/mL
• O=C(O)CSc1nnc(-c2cccc(S(=O)(=O)N3CCOCC3)c2)n1-c1ccc(F)cc1 = > 71.8 µg/mL
• CCC(Cc1ccccc1)NC(=O)CCc1ccccc1 (configuration not stated) = > 42.2 µg/mL
• Cc1ccc(-n2c(=O)c3ccccc3n(CC(=O)C(C)(C)C)c2=O)cc1 = 7.7 µg/mL
• CCN1CCN(C(=O)C2CC(=O)N(c3ccc(Cl)cc3)C2)CC1 (configuration not stated) = > 50.4 µg/mL
• CC(C)(C)c1ccc(C2=NC(=O)C(CC(=O)O)S2)cc1 (configuration not stated) = 37.4 µg/mL
• Cc1cccc(OC(C)C(=O)Nc2nc(-c3ccncc3)cs2)c1 (configuration not stated) = 3.4 µg/mL
• CCN1CCC(NCC2CCCCC2)CC1 = 23.2 µg/mL
• CCN=C1S/C(=C\c2cc(Br)c(O)c(OC)c2)C(=O)N1CC = 1.3 µg/mL
• Cc1cccc(C)c1NC(=O)CN1CCN(C(=O)c2ccc(OCc3cn4ccccc4n3)cc2)CC1 = > 74.6 µg/mL
• O=C(CSc1nncs1)NNC(=O)c1ccccc1Br = > 56 µg/mL
• C/C(=C/c1ccccc1)C(=O)N1CCN(c2ccccc2F)CC1 = 35.6 µg/mL
• Cc1ccc(CN2C(=O)C3CCCN3c3ncccc32)cc1 (configuration not stated) = 33.3 µg/mL
• Cc1nc(NC(=O)COC(=O)CCc2ccccc2)c(Cl)cc1Cl = 21.8 µg/mL
• CCOC(=O)N1CCN(S(=O)(=O)c2ccc3[nH]c(=O)oc3c2)CC1 = 45.6 µg/mL
• O=C(Nc1cccc([N+](=O)[O-])c1)Nc1ccc2c(c1)OCCO2 = 0.4 µg/mL
• Cc1ccc(C(=O)N2CCN=C2SCc2ccc([N+](=O)[O-])cc2)cc1C = 0.3 µg/mL
• Cc1cccc(C(=O)NCC(=O)OCC(=O)c2ccc(Br)s2)c1 = > 59.4 µg/mL
